The entries below come with measured melting point values attached.
All answers are understood in °C, so give the number only.

[
  {
    "Compound": "O=c1[nH]cc(Br)c(=O)[nH]1",
    "melting point [°C]": 310
  }
]

What measured melting point goes with OCCCCCCCCl ? 11

What measured melting point goes with S=c1sc2nc3ccccc3nc2s1 ? 180

What measured melting point goes with CCOC(=O)CSc1nc(C(C)(C)C)nn1C(=O)N(C)C ? 53

What measured melting point goes with CC(=O)C=NO ? 69

What measured melting point goes with Cc1ccc(Cl)c(OCC(O)CNC(C)(C)C)c1 (stereo unspecified) ? 221

What measured melting point goes with NS(=O)(=O)c1ccc(SCCCCCO)cc1 ? 103

What measured melting point goes with CCCCCCCCC(O)CCCCCCCC ? 61

What measured melting point goes with Cc1cc(=O)oc2cc(O)c(O)cc12 ? 275

What measured melting point goes with CC(C)c1ncc([N+](=O)[O-])n1C ? 60

What measured melting point goes with Nc1ccc2cc3ccccc3cc2c1 ? 239

----------
Rule: label 1 for log10 vapour pressure (mmHg) not less than -4, label 0 for anything less.

[
  {
    "Compound": "C=CCCCCCCCCCCCCC",
    "Class": "label 1"
  },
  {
    "Compound": "CCCCCCCCCCCCCCCCCCCCCCCCCCCCCCC",
    "Class": "label 0"
  },
  {
    "Compound": "CCCN(CCC)C(=O)SCc1ccccc1",
    "Class": "label 0"
  }
]

Now look at this one.
Does CCN(Cc1ccc(Cl)nc1)/C(=C/[N+](=O)[O-])NC have a reported log10 vapour pressure (mmHg) of at least -4? label 0

----------
The entries below come with measured boiling point values attached.
All answers are understood in °C, so give the number only.

Below are worked cases with known answers.
[
  {
    "Compound": "Nc1ccc(N)cc1",
    "Unit spec": "°C",
    "boiling point": 267
  },
  {
    "Compound": "CC(Cl)(Cl)C(Cl)Cl",
    "Unit spec": "°C",
    "boiling point": 153
  }
]

What measured boiling point goes with O=[N+]([O-])c1ccsc1 ? 225

What measured boiling point goes with CCCCCCCCCCC(C)O (stereo not given) ? 252

What measured boiling point goes with C/C=C/C(=O)OCC ? 137

What measured boiling point goes with CCCC(C)(C)O ? 121

What measured boiling point goes with Cc1cc(Cl)[nH]n1 ? 258

----------
Classification by boiling point | ranges: low group (below 100 °C), middle group (100 °C to below 200 °C), high group (200 °C or more)

Solved cases (4 shown):
[
  {
    "Compound": "Cc1cc(O)c(C)c(O)c1",
    "Class": "high group"
  },
  {
    "Compound": "CCOC(=O)CO",
    "Class": "middle group"
  },
  {
    "Compound": "Nc1ccc(Cc2ccc(N)c(Cl)c2)cc1Cl",
    "Class": "high group"
  },
  {
    "Compound": "CC1CC(C)C(C)C1 (configuration not stated)",
    "Class": "middle group"
  }
]

Which class holds CC(C)CN=C=S ? middle group

----------
Rule: label 1 for melting point not less than 100 °C, label 0 for anything less.

[
  {
    "Compound": "COc1cccc(Cl)c1Cl",
    "Class": "label 0"
  },
  {
    "Compound": "CC(C(=O)O)c1ccc(C(=O)c2ccccc2)s1 (stereo unspecified)",
    "Class": "label 0"
  },
  {
    "Compound": "CCOC(=O)c1cc2ccccc2o1",
    "Class": "label 0"
  },
  {
    "Compound": "FC(F)(I)C(F)(F)C(F)(F)C(F)(F)I",
    "Class": "label 0"
  },
  {
    "Compound": "OCC(CO)(CCl)CCl",
    "Class": "label 0"
  }
]

Does Ic1cc(I)cc(I)c1 have a reported melting point of at least 100 °C? label 1

Does COc1cccc(OC)c1C(C)=O have a reported melting point of at least 100 °C? label 0

Does O=S(=O)(Cl)c1ccc(Cl)cc1 have a reported melting point of at least 100 °C? label 0

Does Cc1cnc2ccccc2c1 have a reported melting point of at least 100 °C? label 0

Does CCC(=O)C1(c2cccc(O)c2)CCN(C)CC1 have a reported melting point of at least 100 °C? label 1

Does NC(=S)Nc1ccccc1Cl have a reported melting point of at least 100 °C? label 1

Does CCc1c(C)cccc1C have a reported melting point of at least 100 °C? label 0

Does O=C(O)CCS have a reported melting point of at least 100 °C? label 0

Does C#CC(C)(C)O have a reported melting point of at least 100 °C? label 0

Does Cc1cc(C)c(Br)c(C)c1 have a reported melting point of at least 100 °C? label 0

Does Clc1cc2c(oc3c(Cl)c(Cl)c(Cl)c(Cl)c32)c(Cl)c1Cl have a reported melting point of at least 100 °C? label 1

Does O=C(O)CC(S)C(=O)O (stereo unspecified) have a reported melting point of at least 100 °C? label 1

Does CCCC(O)CC(C)C (stereo unspecified) have a reported melting point of at least 100 °C? label 0

Does CCOC(=O)c1ccc(N)cc1 have a reported melting point of at least 100 °C? label 0
